Entry source: paper PMC9783227

# System: P. falciparum NF54
# Protocol summary: In vitro microplate assay against P. falciparum NF54 (3H-hypoxanthine incorporation)
# Format: cell-based, Plasmodium falciparum
# Experimental context: Plasmodium falciparum, NF54, chloroquine sensitive strain NF54, erythrocytic stages; average of four determinations; read-out: PfNF54 IC50
Measurement kind: pIC50
pIC50 (log units): -log10 of the concentration in mol/L.

Sample records with pIC50:
Record smiles: CC(C)(C)OC(=O)N1CCN(c2ccc(NC(=O)c3ccccc3Oc3ccccc3)cc2)CC1
Measured number: 5.51
--
Record smiles: CC(C)(C)OC(=O)N1CCN(c2ccc(NC(=O)c3cccc([N+](=O)[O-])c3Oc3ccc(F)cc3)cc2)CC1
Measured number: 5.84
--
Record smiles: CC(C)(C)OC(=O)N1CCN(c2ccc(NC(=O)c3cccc(F)c3Oc3ccc(F)cc3)cc2)CC1
Measured number: 5.39
--
Record smiles: CC(C)(C)OC(=O)N1CCN(c2ccc(NC(=O)c3cccc(N)c3Oc3ccc(F)cc3)cc2)CC1
Measured number: 5.51
--
Record smiles: CC(C)(C)OC(=O)N1CCN(c2ccc(NC(=O)c3cccc(C(F)(F)F)c3Sc3ccc(F)cc3)cc2)CC1
Measured number: 6.83
--
Record smiles: CC(C)(C)OC(=O)N1CCN(c2ccccc2NC(=O)c2cccc(N)c2Oc2ccc(F)cc2)CC1
Measured number: 6.00

Query: What value of pIC50 on P. falciparum NF54 does "CC(C)(C)OC(=O)N1CCN(c2ccc(NC(=O)c3ccccc3Oc3ccc(F)cc3)cc2)CC1" have?
Reply: 5.47

Query: Would you mind doing "CC(C)(C)C(=O)N1CCN(c2ccccc2NC(=O)c2cccc(F)c2Oc2ccc(F)cc2)CC1" as well?
Reply: 5.67

Query: Would you mind doing "CC(C)(C)C(=O)N1CCN(c2ccc(NC(=O)c3cccc([N+](=O)[O-])c3Oc3ccc(F)cc3)cc2)CC1" as well?
Reply: 5.82

Query: Would you mind doing "CC(C)(C)OC(=O)N1CCN(c2ccccc2NC(=O)c2cccc([N+](=O)[O-])c2Oc2ccc(F)cc2)CC1" as well?
Reply: 6.23

Query: Would you mind doing "CC(C)(C)C(=O)N1CCN(c2ccc(NC(=O)c3ccccc3Oc3ccc(F)cc3)cc2)CC1" as well?
Reply: 5.25

Query: Would you mind doing "CC(C)(C)C(=O)N1CCN(c2ccccc2NC(=O)c2ccccc2Oc2ccc(F)cc2)CC1" as well?
Reply: 5.67

Query: Would you mind doing "CC(C)(C)OC(=O)N1CCN(c2ccccc2NC(=O)c2ccccc2Oc2ccc(F)cc2)CC1" as well?
Reply: 6.20

Query: Would you mind doing "CC(C)(C)C(=O)N1CCN(c2ccc(NC(=O)c3cccc(F)c3Oc3ccc(F)cc3)cc2)CC1" as well?
Reply: 5.75

###

# Tested on: P. falciparum NF54
# Protocol summary: In vitro microplate assay against P. falciparum NF54 (3H-hypoxanthine incorporation)
# Type: cell-based, Plasmodium falciparum
# Experimental context: Plasmodium falciparum, NF54, chloroquine sensitive strain NF54, erythrocytic stages; average of four determinations; read-out: PfNF54 IC50
pIC50: −log10 of the molar value.
Measured pIC50 of individual entries

Record smiles: CC(C)(C)OC(=O)N1CCN(c2ccc(NC(=O)c3cccc(C(F)(F)F)c3Nc3ccc(F)cc3)cc2)CC1
Measurement kind: pIC50
Result: 6.20 to 6.27
//
Record smiles: CC(C)(C)OC(=O)N1CCN(c2ccc(NC(=O)c3cccc(C(F)(F)F)c3Nc3ccccc3)cc2)CC1
Measurement kind: pIC50
Result: 6.20 to 6.27

From here, focus on the item given below.
Query: Which measured pIC50 value corresponds to "CC(C)(C)OC(=O)N1CCN(c2ccccc2NC(=O)c2cccc(C(F)(F)F)c2Nc2ccccc2)CC1" ?
Reply: 6.20 to 6.21
